Tested on: MDA-MB-468 breast
experimentDescription: NCI-60 one-dose screen, 48 h (100 = growth as untreated, 0 = no growth, -100 = all killed)
conditionNotes: 10 µM unless noted
Compounds without any hit were thinned out: in the full panel of roughly 83,000, 20% have a hit.
Items are presented alongside their recorded growth.
Please reply with the bare figure in % and do not write the unit itself.

Use these answered entries as a reference point.
Nc1ccc(-c2ccncc2)cc1NC(=O)N1CCCC1: 94.2
Cc1cccc(Oc2ccc(Nc3ncnc4ccc(NC(=O)CN(C)C)cc34)cc2Cl)c1: -45.2
CCCCCCN(CCCCCC)CCC(O)c1ccc2ccccc2c1 (stereo not given): 18.6
Cc1ccc(C2C3CC4CCCCC4N3[C@@]3(C(=O)Nc4cc(Cl)ccc43)C2C(=O)c2nc3ccccc3[nH]2)cc1 (stereo not given in full): -10.9
COc1ccc2nc3ccccc3c(NCc3ccccc3)c2c1: -9.89
O=C1Nc2ccccc2/C1=C/c1cn(CCCn2c3ccccc3c(=O)c3ccccc32)c2ccccc12: 96.4
N#CC(C#N)N=Nc1ccc(Cl)cc1Cl: 58.8
Cc1cc(O)c(C2=NN(c3ccc(S(N)(=O)=O)cc3)C(c3ccc(Cl)cc3)C2)c(C)c1Cl (stereo not given): 43.7

Request - read-out growth | tested on MDA-MB-468 breast | compound Cc1ccc2c(-n3nc(C#N)c(C#N)c3N)cc(=O)[nH]c2c1
92.6

Request - read-out growth | tested on MDA-MB-468 breast | compound CCN(CC)CC[n+]1cc2cc(OC)c(OC)cc2c2ccc3cc4c(cc3c21)OCO4
-27
